Experiment: Cytotoxicity against human […] cells after 72 hrs by MTT assay
Type: functional, cell-based
measure name: pIC50
Remember, pIC50 is on a log scale: it is -log10 of the molar concentration.

Exercise: Looking for the measured pIC50 of CCCCCCCC(SC(=O)c1cc(OC)c(OC)c(OC)c1)c1cc(OC)c2c(c1OC)/C(=N/O)C=C/C2=N\O (centres undefined) , can you help?
Solution: 5.53

Exercise: Would you kindly share the measured pIC50 for O=c1[nH]cc(F)c(=O)[nH]1 ?
Solution: 4.64

Exercise: Query (compound): CCCCCCCC(SCCC(C)C)c1cc(OC)c2c(c1OC)/C(=N/O)C=C/C2=N\O (centres undefined) ; field requested: pIC50
Solution: 5.35

Exercise: Name the recorded pIC50 for COc1cccc2c1C(=O)c1c(O)c3c(c(O)c1C2=O)C[C@@](O)(C(=O)CO)C[C@@H]3O[C@H]1C[C@H](N)[C@H](O)[C@H](C)O1.Cl [DOXORUBICIN HYDROCHLORIDE] .
Solution: 5.88

====

Tested on: MGC-803
Assay: Cytotoxicity against human MGC803 cells after 72 hrs by MTT assay
Type: functional, cell-based
Settings: MGC-803, 72 h
measure name: IC50 (µM)
Report the value in µM with no unit label.

Exercise: Which IC50 value belongs to CCC(SC(=O)c1cc(OC)c(OC)c(OC)c1)c1cc(OC)c2c(c1OC)/C(=N/O)C=C/C2=N\O (stereo not drawn) ?
Solution: 30.3

Exercise: # lookup: IC50 of CCCCCCCCC(SC(=O)c1ccc(C(F)(F)F)cc1)c1cc(OC)c2c(c1OC)/C(=N/O)C=C/C2=N\O (stereo not drawn)
Solution: 6.34

Exercise: Look at this compound and give its reported IC50. CCCCCCCC(SC(=O)c1cc(OC)c(OC)c(OC)c1)c1cc(OC)c2c(c1OC)/C(=N/O)C=C/C2=N\O (stereo not drawn)
Solution: 1.21

Exercise: Fill blank: measured IC50 of the compound CCCCCCCC(SCCC(C)C)c1cc(OC)c2c(c1OC)/C(=N/O)C=C/C2=N\O (stereo not drawn) is ____.
Solution: 1.35

Exercise: What measured IC50 goes with CCCCCCCCC(SC(=O)c1cc(OC)c(OC)c(OC)c1)c1cc(OC)c2c(c1OC)/C(=N/O)C=C/C2=N\O (stereo not drawn) ?
Solution: 0.91

Exercise: Consider the compound CCCCCCCCCC(SC(=O)c1cc(OC)c(OC)c(OC)c1)c1cc(OC)c2c(c1OC)/C(=N/O)C=C/C2=N\O (stereo not drawn) and give its measured IC50.
Solution: 1.25

Exercise: Quick check: IC50 of CCCCCCCCC(SC(=O)c1cccs1)c1cc(OC)c2c(c1OC)/C(=N/O)C=C/C2=N\O (stereo not drawn) ?
Solution: 3.71

Exercise: What IC50 value was documented for this compound, CCCCC(SCCC(C)C)c1cc(OC)c2c(c1OC)/C(=N/O)C=C/C2=N\O (stereo not drawn) ?
Solution: 5.96

Exercise: Quick one: IC50 of CCCCCCCCCCCCC(SC(=O)c1cc(OC)c(OC)c(OC)c1)c1cc(OC)c2c(c1OC)/C(=N/O)C=C/C2=N\O (stereo not drawn) ?
Solution: 7.59

Exercise: Recorded IC50 of CCCCCCCCCCC(SC(=O)c1cc(OC)c(OC)c(OC)c1)c1cc(OC)c2c(c1OC)/C(=N/O)C=C/C2=N\O (stereo not drawn) , please.
Solution: 4.66

Exercise: // lookup IC50 for CCCCCCCCC(SC(=O)c1ccco1)c1cc(OC)c2c(c1OC)/C(=N/O)C=C/C2=N\O (stereo not drawn)
Solution: 5.26

Exercise: Given the entry CCCCCCCCC(SC(=O)c1ccc(OC)c(OC)c1)c1cc(OC)c2c(c1OC)/C(=N/O)C=C/C2=N\O (stereo not drawn) , report its measured IC50.
Solution: 0.95

Exercise: Can you look up the measured IC50 of CCCCCCCCCCC(SCCCCC)c1cc(OC)c2c(c1OC)/C(=N/O)C=C/C2=N\O (stereo not drawn) for me?
Solution: 12.1

Exercise: # lookup: IC50 of CCCCCCCCC(SCCCCCC)c1cc(OC)c2c(c1OC)/C(=N/O)C=C/C2=N\O (stereo not drawn)
Solution: 1.91

Exercise: Requested field: IC50. Item: CCCCCCCCCCCCCCC(SC(=O)c1cc(OC)c(OC)c(OC)c1)c1cc(OC)c2c(c1OC)/C(=N/O)C=C/C2=N\O (stereo not drawn)
Solution: 9.68

Exercise: Please report the recorded IC50 for CCCCCCCCC(SCCC(C)C)c1cc(OC)c2c(c1OC)/C(=N/O)C=C/C2=N\O (stereo not drawn) .
Solution: 1.09
